Test system: PSN1
Assay: Antiproliferative activity against human PSN1 cells expressing KRAS mutant cultured as 2D spheroids assessed as inhibition of cell growth measured after 72 hrs by MTT assay
Type: functional, cell-based
Conditions: PSN1, 72 h
pIC50: −log10 of the molar value.

# SMILES TEXT, SYSTEM, pIC50
rows = [
    ("O=C(c1ccccc1)C(Cl)Cl", "PSN1", 4.44),
    ("Nc1nnc(-c2c[nH]c3ncccc23)c(-c2c[nH]c3ccc(F)cc23)n1", "PSN1", 5.49),
    ("COc1ccc2[nH]cc(-c3nc(N)nnc3-c3c[nH]c4ncccc34)c2c1", "PSN1", 5.66),
    ("Cn1cc(-c2nnc(N)nc2-c2c[nH]c3ccccc23)c2cccnc21", "PSN1", 5.66),
    ("Cn1cc(-c2nc(N)nnc2-c2c[nH]c3ccc(Br)cc23)c2cc(Br)cnc21", "PSN1", 5.96),
    ("Cn1cc(-c2nnc(N)nc2-c2c[nH]c3ccc(F)cc23)c2cccnc21", "PSN1", 5.80),
    ("Cn1cc(-c2nnc(N)nc2-c2c[nH]c3ccccc23)c2cc(Br)cnc21", "PSN1", 5.34),
    ("COc1ccc2[nH]cc(-c3nc(N)nnc3-c3cn(C)c4ncccc34)c2c1", "PSN1", 5.64),
    ("Nc1nnc(-c2c[nH]c3ncc(Br)cc23)c(-c2c[nH]c3ccc(F)cc23)n1", "PSN1", 5.54),
    ("Nc1nnc(-c2c[nH]c3ccc(Br)cc23)c(-c2c[nH]c3ncc(Br)cc23)n1", "PSN1", 5.82),
]

###

System: BXPC-3
Assay: Antiproliferative activity against human BXPC-3 cells expressing wild type KRAS cultured as 3D spheroids assessed as inhibition of cell growth measured after 72 hrs by MTT assay
Assay type: functional, cell-based
Settings: BXPC-3, 72 h
pIC50: −log10 of the molar value.
Documented pIC50 across a set of compounds

# SMILES TEXT, RELATION OPERATOR, pIC50
rows = [
    ("Nc1nnc(-c2c[nH]c3ncccc23)c(-c2c[nH]c3ccc(F)cc23)n1", "=", 4.71),
    ("COc1ccc2[nH]cc(-c3nnc(N)nc3-c3cn(C)c4ncccc34)c2c1", "=", 4.97),
    ("COc1ccc2[nH]cc(-c3nnc(N)nc3-c3cn(C)c4ncc(Br)cc34)c2c1", "=", 5.48),
    ("COc1ccc2[nH]cc(-c3nc(N)nnc3-c3cn(C)c4ncccc34)c2c1", "=", 4.87),
    ("Nc1nnc(-c2c[nH]c3ncccc23)c(-c2c[nH]c3ccc(Br)cc23)n1", "=", 4.79),
    ("Nc1nnc(-c2c[nH]c3ccc(F)cc23)c(-c2c[nH]c3ncc(Br)cc23)n1", "=", 4.83),
    ("Nc1nnc(-c2c[nH]c3ccccc23)c(-c2c[nH]c3ncccc23)n1", "=", 4.63),
    ("COc1ccc2[nH]cc(-c3nc(N)nnc3-c3c[nH]c4ncccc34)c2c1", "=", 4.47),
    ("Nc1nnc(-c2c[nH]c3ccc(Br)cc23)c(-c2c[nH]c3ncc(Br)cc23)n1", "=", 4.26),
    ("Cn1cc(-c2nc(N)nnc2-c2c[nH]c3ccccc23)c2cc(Br)cnc21", "=", 4.47),
    ("Cn1cc(-c2nnc(N)nc2-c2c[nH]c3ccc(F)cc23)c2cccnc21", "=", 4.84),
    ("Cn1cc(-c2nc(N)nnc2-c2c[nH]c3ccc(F)cc23)c2cccnc21", "=", 4.65),
    ("Cn1cc(-c2nc(N)nnc2-c2c[nH]c3ccc(Br)cc23)c2cccnc21", "=", 4.70),
    ("Cn1cc(-c2nc(N)nnc2-c2c[nH]c3ccccc23)c2cccnc21", "=", 4.81),
    ("Cn1cc(-c2nc(N)nnc2-c2c[nH]c3ccc(F)cc23)c2cc(Br)cnc21", "=", 5.30),
    ("O=C(c1ccccc1)C(Cl)Cl", "=", 4.11),
    ("COc1ccc2[nH]cc(-c3nc(N)nnc3-c3c[nH]c4ncc(Br)cc34)c2c1", "=", 4.51),
    ("Cn1cc(-c2nnc(N)nc2-c2c[nH]c3ccccc23)c2cc(Br)cnc21", "=", 4.47),
    ("Cn1cc(-c2nnc(N)nc2-c2c[nH]c3ccccc23)c2cccnc21", "=", 4.79),
    ("Nc1nnc(-c2c[nH]c3ccc(F)cc23)c(-c2c[nH]c3ncccc23)n1", "=", 4.65),
    ("COc1ccc2[nH]cc(-c3nc(N)nnc3-c3cn(C)c4ncc(Br)cc34)c2c1", "=", 5.20),
    ("COc1ccc2[nH]cc(-c3nnc(N)nc3-c3c[nH]c4ncc(Br)cc34)c2c1", "=", 4.56),
    ("Cn1cc(-c2nc(N)nnc2-c2c[nH]c3ccc(Br)cc23)c2cc(Br)cnc21", "=", 5.22),
    ("Nc1nnc(-c2c[nH]c3ncc(Br)cc23)c(-c2c[nH]c3ccc(Br)cc23)n1", "=", 4.54),
    ("Cn1cc(-c2nnc(N)nc2-c2c[nH]c3ccc(Br)cc23)c2cc(Br)cnc21", "=", 4.61),
    ("Nc1nnc(-c2c[nH]c3ncc(Br)cc23)c(-c2c[nH]c3ccc(F)cc23)n1", "=", 4.71),
    ("Cn1cc(-c2nnc(N)nc2-c2c[nH]c3ccc(Br)cc23)c2cccnc21", "=", 4.59),
    ("Cn1cc(-c2nnc(N)nc2-c2c[nH]c3ccc(F)cc23)c2cc(Br)cnc21", "=", 5.16),
    ("O=C(O)C(Cl)Cl", "<", 3.00),
]

###

Documented inhibition across a set of compounds
Target: Heat shock protein HSP90 (Homo sapiens, UniProt P07900+P08238)
Assay: Inhibition of human recombinant HSP90 at 1.5 uM incubated for 30 mins by fluorescence polarization based analysis relative to control
Format: protein assay

# SMILES TEXT, inhibition / %
rows = [
    ("COc1ccc2[nH]cc(-c3nc(N)nnc3-c3cn(C)c4ncc(Br)cc34)c2c1", 0),
    ("Cn1cc(-c2nnc(N)nc2-c2c[nH]c3ccc(F)cc23)c2cc(Br)cnc21", 60),
    ("Cn1cc(-c2nc(N)nnc2-c2c[nH]c3ccc(F)cc23)c2cc(Br)cnc21", 60),
    ("Cn1cc(-c2nc(N)nnc2-c2c[nH]c3ccc(Br)cc23)c2cc(Br)cnc21", 40),
    ("COc1ccc2[nH]cc(-c3nnc(N)nc3-c3cn(C)c4ncc(Br)cc34)c2c1", 0),
    ("Cn1cc(-c2nnc(N)nc2-c2c[nH]c3ccc(Br)cc23)c2cc(Br)cnc21", 40),
]
